Assay: Extraction ratio in mouse liver microsomes assessed per mg of protein at 0.1 uM by LC-MS/MS analysis
Format: ADME, Microsome
Settings: read-out: ERH
EXPERIMENTAL_READOUT: hepatic extraction ratio at 0.1 µM
// return a plain number; no unit text

-- ask Recorded hepatic extraction ratio at 0.1 µM for CC(C)(C)c1cc(C(=O)Nc2cccnc2)cc(C(=O)Nc2cccnc2)c1 , please?
-- reply 0.6

* * *

Can you tell me microsomal CLint at 0.1 µM for the items I'm about to list?
Experiment: Clearance in rat liver microsomes assessed per mg of protein at 0.1 uM by LC-MS/MS analysis
Assay type: ADME, Microsome
Conditions: read-out: CLH

-- ask Recorded microsomal CLint at 0.1 µM for CC(C)(C)c1cc(C(=O)Nc2cccnc2)cc(C(=O)Nc2cccnc2)c1 , please?
-- reply 33.5 µL/min/mg

-- ask Recorded microsomal CLint at 0.1 µM for O=C(Nc1ccncc1)c1cc(C(=O)Nc2ccncc2)cc([N+](=O)[O-])c1 , please?
-- reply < 11.6 µL/min/mg

* * *

Test system: Hemozoin
Experiment: Inhibition of beta-hematin in water/NP40/DMSO solution incubated for 5 to 6hrs by detergent-mediated pyridine-ferrichrome method
Can you tell me IC50 for the items I'm about to list?
Quick note: give the figure in µM, leave out the unit.

-- ask Recorded IC50 for N#Cc1cc(C(=O)Nc2ccccc2)cc(C(=O)Nc2ccccc2)c1 , please?
-- reply 4.4

-- ask Recorded IC50 for CN(C)Cc1ccc(NC(=O)c2cc(C(=O)Nc3ccc(CN(C)C)cc3)cc([N+](=O)[O-])c2)cc1 , please?
-- reply 7.9

-- ask Recorded IC50 for O=C(Nc1ccncc1)c1cc(C(=O)Nc2ccncc2)cc([N+](=O)[O-])c1 , please?
-- reply 4.3

-- ask Recorded IC50 for O=C(Nc1cccnc1)c1cc(C(=O)Nc2cccnc2)cc([N+](=O)[O-])c1 , please?
-- reply 4.7

-- ask Recorded IC50 for CCN(CC)CCCC(C)Nc1ccnc2cc(Cl)ccc12 (stereo unspecified) [CHLOROQUINE] , please?
-- reply 31.5

* * *

Test: Kinetic solubility of compound in at pH 6.5 after 2 hrs by shake flask assay
Type: physicochemical
Conditions: buffer, read-out: Kinetic_solubility
EXPERIMENTAL_READOUT: solubility kinetic at 2 h (µM)
Quick note: give the figure in µM, leave out the unit.

-- ask Recorded solubility kinetic at 2 h for CC(C)(C)c1cc(C(=O)Nc2cccnc2)cc(C(=O)Nc2cccnc2)c1 , please?
-- reply 92.7

* * *

Experiment: Extraction ratio in human liver microsomes assessed per mg of protein at 0.1 uM by LC-MS/MS analysis
Type: ADME, Microsome
Conditions: read-out: ERH
EXPERIMENTAL_READOUT: hepatic extraction ratio at 0.1 µM
// return a plain number; no unit text

-- ask Recorded hepatic extraction ratio at 0.1 µM for CC(C)(C)c1cc(C(=O)Nc2cccnc2)cc(C(=O)Nc2cccnc2)c1 , please?
-- reply 0.4

* * *

Test: Half life in human liver microsomes at 0.1 uM in presence of NADPH by LC-MS/MS analysis
Assay type: ADME, Microsome
EXPERIMENTAL_READOUT: half-life at 0.1 µM (h)
Quick note: give the figure in h, leave out the unit.

-- ask Recorded half-life at 0.1 µM for CC(C)(C)c1cc(C(=O)Nc2cccnc2)cc(C(=O)Nc2cccnc2)c1 , please?
-- reply 2.37

* * *

Test: Half life in mouse liver microsomes at 0.1 uM in presence of NADPH by LC-MS/MS analysis
Type: ADME, Microsome
EXPERIMENTAL_READOUT: half-life at 0.1 µM (min)
Quick note: give the figure in min, leave out the unit.

-- ask Recorded half-life at 0.1 µM for CC(C)(C)c1cc(C(=O)Nc2cccnc2)cc(C(=O)Nc2cccnc2)c1 , please?
-- reply 52.4

* * *

Experiment: Clearance in mouse liver microsomes assessed per mg of protein at 0.1 uM by LC-MS/MS analysis
Type: ADME, Microsome
Conditions: read-out: CLH
EXPERIMENTAL_READOUT: microsomal CLint at 0.1 µM (µL/min/mg)
Quick note: give the figure in µL/min/mg, leave out the unit.

-- ask Recorded microsomal CLint at 0.1 µM for CC(C)(C)c1cc(C(=O)Nc2cccnc2)cc(C(=O)Nc2cccnc2)c1 , please?
-- reply 130

* * *

Test: Clearance in human liver microsomes assessed per mg of protein at 0.1 uM by LC-MS/MS analysis
Assay type: ADME, Microsome
Settings: read-out: CLH
EXPERIMENTAL_READOUT: microsomal CLint at 0.1 µM (µL/min/mg)
Quick note: give the figure in µL/min/mg, leave out the unit.

-- ask Recorded microsomal CLint at 0.1 µM for CC(C)(C)c1cc(C(=O)Nc2cccnc2)cc(C(=O)Nc2cccnc2)c1 , please?
-- reply 14.1

* * *

System: Plasmodium falciparum
Experiment: Antimalarial activity against CQ-sensitive Plasmodium falciparum D10 infected in human type O+ erythrocytes assessed as growth inhibition incubated for 48 hrs by LDH assay
Format: functional, organism-based
Conditions: D10, 48 h
EXPERIMENTAL_READOUT: IC50 (µM)
Quick note: give the figure in µM, leave out the unit.

-- ask Recorded IC50 for N#Cc1cc(C(=O)Nc2ccncc2)cc(C(=O)Nc2ccncc2)c1 , please?
-- reply 2

-- ask Recorded IC50 for CC(C)(C)c1cc(C(=O)Nc2cccnc2)cc(C(=O)Nc2cccnc2)c1 , please?
-- reply 0.7

-- ask Recorded IC50 for O=C(Nc1cccnc1)c1cc([N+](=O)[O-])cc([N+](=O)[O-])c1 , please?
-- reply 2.3

-- ask Recorded IC50 for O=C(Nc1ccncc1)c1cc(C(=O)Nc2ccncc2)cc([N+](=O)[O-])c1 , please?
-- reply 0.9

-- ask Recorded IC50 for N#Cc1cc(C(=O)Nc2ccccc2)cc(C(=O)Nc2ccccc2)c1 , please?
-- reply 5.2

-- ask Recorded IC50 for O=C(Nc1ccncc1)c1cc([N+](=O)[O-])cc([N+](=O)[O-])c1 , please?
-- reply 2.4

-- ask Recorded IC50 for O=C(Nc1ccccn1)c1cc([N+](=O)[O-])cc([N+](=O)[O-])c1 , please?
-- reply 24

* * *

Experiment: Kinetic solubility of compound FaSSIF at pH 6.5 after 2 hrs by shake flask assay
Assay type: physicochemical
Details: read-out: Kinetic_solubility
EXPERIMENTAL_READOUT: solubility kinetic at 2 h (µM)
Quick note: give the figure in µM, leave out the unit.

-- ask Recorded solubility kinetic at 2 h for CC(C)(C)c1cc(C(=O)Nc2cccnc2)cc(C(=O)Nc2cccnc2)c1 , please?
-- reply 154

-- ask Recorded solubility kinetic at 2 h for O=C(Nc1ccncc1)c1cc(C(=O)Nc2ccncc2)cc([N+](=O)[O-])c1 , please?
-- reply 13

* * *

Assay: Extraction ratio in rat liver microsomes assessed per mg of protein at 0.1 uM by LC-MS/MS analysis
Assay type: ADME, Microsome
Conditions: read-out: ERH
EXPERIMENTAL_READOUT: hepatic extraction ratio at 0.1 µM
// return a plain number; no unit text

-- ask Recorded hepatic extraction ratio at 0.1 µM for CC(C)(C)c1cc(C(=O)Nc2cccnc2)cc(C(=O)Nc2cccnc2)c1 , please?
-- reply 0.4

* * *

Can you tell me IC50 for the items I'm about to list?
System: Hemozoin
Assay: Inhibition of beta-hematin in water/NP40/DMSO solution incubated for 5 to 6hrs by detergent-mediated pyridine-ferrichrome method

-- ask Observed IC50 on Hemozoin for COc1cc(C(=O)Nc2ccncc2)cc(C(=O)Nc2ccncc2)c1 , please.
-- reply 22 µM

-- ask Observed IC50 on Hemozoin for O=C(Nc1ccccc1)c1cc(C(=O)Nc2ccccc2)cc(C(=O)Nc2ccccc2)c1 , please.
-- reply 21 µM

-- ask Observed IC50 on Hemozoin for CC(C)(C)c1cc(C(=O)Nc2cccnc2)cc(C(=O)Nc2cccnc2)c1 , please.
-- reply 6.8 µM

-- ask Observed IC50 on Hemozoin for Cc1cc(C(=O)Nc2ccccc2)cc(C(=O)Nc2ccccc2)c1 , please.
-- reply > 1000 µM

-- ask Observed IC50 on Hemozoin for O=C(Nc1ccncc1)c1cccc(C(=O)Nc2ccncc2)n1 , please.
-- reply 260 µM

-- ask Observed IC50 on Hemozoin for O=C(Nc1ccccc1)c1cccc(C(=O)Nc2ccccc2)n1 , please.
-- reply > 1000 µM

-- ask Observed IC50 on Hemozoin for O=C(Nc1ccccc1)c1cc([N+](=O)[O-])cc([N+](=O)[O-])c1 , please.
-- reply 22 µM

-- ask Observed IC50 on Hemozoin for O=C(Nc1ccccc1)c1cc(C(=O)Nc2nc3ccccc3[nH]2)cc([N+](=O)[O-])c1 , please.
-- reply 68 µM

-- ask Observed IC50 on Hemozoin for CC(C)(C)c1cc(C(=O)Nc2ccncc2)cc(C(=O)Nc2ccncc2)c1 , please.
-- reply 13.3 µM

-- ask Observed IC50 on Hemozoin for O=C(Nc1ccccc1)c1cc(C(=O)Nc2ccccc2)cc([N+](=O)[O-])c1 , please.
-- reply 7 µM

-- ask Observed IC50 on Hemozoin for N#Cc1cc(C(=O)Nc2ccncc2)cc(C(=O)Nc2ccncc2)c1 , please.
-- reply 6.34 µM

-- ask Observed IC50 on Hemozoin for COc1ccc(C(=O)Nc2ccncc2)cc1 , please.
-- reply > 5500 µM

-- ask Observed IC50 on Hemozoin for O=C(Nc1ccncc1)c1cc([N+](=O)[O-])cc([N+](=O)[O-])c1 , please.
-- reply 10.9 µM

-- ask Observed IC50 on Hemozoin for O=C(Nc1ccncc1)c1cccc(C(=O)Nc2ccncc2)c1 , please.
-- reply 507 µM

-- ask Observed IC50 on Hemozoin for O=C(Nc1cccnc1)c1cc([N+](=O)[O-])cc([N+](=O)[O-])c1 , please.
-- reply 13 µM

-- ask Observed IC50 on Hemozoin for O=C(Nc1ccccc1)c1cccc(C(=O)Nc2ccccc2)c1 , please.
-- reply > 1000 µM

-- ask Observed IC50 on Hemozoin for O=C(Nc1ccccc1)c1ccc([N+](=O)[O-])cc1 , please.
-- reply > 5500 µM

-- ask Observed IC50 on Hemozoin for Cc1cc(C(=O)Nc2ccncc2)cc(C(=O)Nc2ccncc2)c1 , please.
-- reply 8 µM

-- ask Observed IC50 on Hemozoin for O=C(Nc1ccccn1)c1cc([N+](=O)[O-])cc([N+](=O)[O-])c1 , please.
-- reply 134 µM

-- ask Observed IC50 on Hemozoin for COc1cc(C(=O)Nc2ccccc2)cc(C(=O)Nc2ccccc2)c1 , please.
-- reply > 1000 µM
